- procedure-details: Pharmacokinetics of PAR1 pepducins in CF-1 mice, plasma LC/MS/MS
- Format: in vivo, mouse
- condition-summary: CF-1, mouse, plasma, sc; 3 mg/kg s.c.; read-out: Peak plasma level
Peptide text beside a SMILES is read from it. * marks the point of attachment. Palmitoyl = CCCCCCCCCCCCCCCC(=O)*
quantity-measured: Cmax (nM)
Write the value in nM as a bare number.

Entry CCCCCCCCCCCCCCCC(=O)N[C@@H](CCCCN)C(=O)N[C@@H](CCCCN)C(=O)N[C@@H](CO)C(=O)N[C@@H](CCCNC(=N)N)C(=O)N[C@@H](C)C(=O)N[C@@H](CC(C)C)C(=O)N[C@@H](Cc1ccccc1)C(N)=O [P1pal-7] (Palmitoyl-KKSRALF-NH2) ; Cmax = 600
